- System: UO-31
- METHOD_DESCRIPTION: NCI tumour cell line growth inhibition, 48 h
Active and inactive are the calls of the source. Cut-off read from the data, not from the text of the source: active = GI50 up to about 1.1 µM and inactive = higher.
ENDPOINT_NAME: GI50

[[record]]
compound = "Cc1[nH]c(=O)nc(N/N=C/c2ccc(O)cc2)c1C(=O)Nc1ccc(Cl)cc1"
endpoint_value = "> 100 µM (inactive)"

[[record]]
compound = "O=[As](O)(O)c1ccc(NCc2ccccc2)cc1"
endpoint_value = "> 100 µM (inactive)"

[[record]]
compound = "O=C(CCc1ccc(O)c(O)c1)NCCc1ccc(O)c(O)c1"
endpoint_value = "> 100 µM (inactive)"

[[record]]
compound = "COc1c(O)c(O)cc2c1-c1ccc(OC)c(=O)cc1C(NC(C)=O)CC2 (centres undefined)"
endpoint_value = "56.1 µM (inactive)"

[[record]]
compound = "OC1(c2ccc3ccccc3c2)c2ccc3ccccc3c2C2=NCCN21 (centres undefined)"
endpoint_value = "40.9 µM (inactive)"

[[record]]
compound = "CN1CCN(C(=S)N(C(=O)c2cccs2)C2CCCCC2)CC1"
endpoint_value = "> 100 µM (inactive)"

[[record]]
compound = "O=c1c2ccccc2oc2c1ccc1ncccc12"
endpoint_value = "5.93 µM (inactive)"

[[record]]
compound = "Oc1ccc2ccccc2c1/N=N/c1ccc(Cl)cc1"
endpoint_value = "> 100 µM (inactive)"

[[record]]
compound = "COc1cc2c(c3oc(-c4ccc5c(c4)OCO5)c(O)c(=O)c13)CCC(C)(C)O2"
endpoint_value = "> 100 µM (inactive)"

[[record]]
compound = "CC1(C)[C@@H](Cn2cc(I)c(=O)[nH]c2=O)CC[C@@]1(C)CO"
endpoint_value = "> 100 µM (inactive)"


Here's the next entry for you.
# query: GI50 | item CC(C)(C)c1cc(COc2cc(COc3ccc(-c4c5c(nc6c4CCc4ccc(-c7c8ccccc8nc8ccccc78)cc4-6)-c4cc(-c6c7ccccc7nc7ccccc67)ccc4CC5)cc3)cc(OCc3cc(C(C)(C)C)cc(C(C)(C)C)c3)c2)cc(C(C)(C)C)c1 | system: UO-31
> 100 µM (inactive)

Data provenance: ChEMBL document CHEMBL1201862
